Tested on: SEM cells
experimentNotes: cell viability relative to DMSO control; higher = less cytotoxic
experimentalSetup: RPMI 5 mM glucose + 10% dialyzed FBS; 48 h; 1.71 µM
cell viability under 90% gets condition met, anything at or over 90% gets condition not met.

Recorded results for 10 compounds are shown here.
compound	assignedClass
COc1ccc(-c2cc3nccn3c(Nc3ncccc3C(N)=O)n2)cc1OC	condition met
CC1=C(/C=C/C(C)=C/C=C/C(C)=C/C=C/C=C(C)/C=C/C=C(C)/C=C/C2=C(C)CCCC2(C)C)C(C)(C)CCC1	condition not met
CCCCCCCCCCCCCCCCCCCCCCO	condition not met
NC(=O)c1cnc(N[C@@H]2CCCC[C@@H]2N)nc1Nc1cccc(-n2nccn2)c1	condition not met
Cc1cn2c(-c3cn[nH]c3)cnc2c(Nc2ccc(C(=O)N3CCNCC3)cc2F)n1	condition not met
[NH2][Pt]1([NH2])[O]CC(=O)[O]1	condition not met
c1cncc(CN2CCC(n3ncc4c(N5CCOCC5)nc(-c5ccc6[nH]ccc6c5)nc43)CC2)c1	condition met
CC(C)(C)C(=O)Oc1ccc2c(c1)nc(NC(=O)c1cccc([N+](=O)[O-])c1)n2CCCO	condition met
COc1cc2c(cc1OC)C1CC(=O)C(CC(C)C)CN1CC2 (centres undefined)	condition not met
CC[C@H](CC#N)OC(=O)N[C@@H](C)c1cccc(NC(=O)Nc2ccc(-c3cnco3)c(OC)c2)c1	condition not met

Shifting focus to the compound that follows.
Exercise: Find out if reported cell viability for "CN[S+](=O)([O-])Cc1ccc2[nH]cc(CCN(C)C)c2c1" is less than 90%
Solution: condition not met

* * *

Tested on: P12-Ichikawa
experimentNotes: cell viability relative to DMSO control; higher = less cytotoxic
experimentalSetup: RPMI 5 mM glucose + 10% dialyzed FBS; 48 h; 46.1 µM
measurementLabel: cell viability (%)
Lab book: enter the figure in %, no units written.

compound	unitsLabel	cell viability
CC1=C(/C=C/C(C)=C/C=C/C(C)=C/C=C/C=C(C)/C=C/C=C(C)/C=C/C2=C(C)CCCC2(C)C)C(C)(C)CCC1	%	85.7
COC1=C(N2CCNC(C)C2)C(=CC3=C1N(\C=C(C(O)=O)/C3=O)C4CC4)F (centres undefined)	%	78.6

Exercise: Answer with the recorded cell viability of "C[C@@H](NC1=CC=CC=C1C(O)=O)C/2=C/C(=C\N3C(=O)/C=C(\N=C23)N4CCOCC4)C" only.
Solution: 33.1

Exercise: Answer with the recorded cell viability of "CC(C)[C@@H](N(CCCN)C(=O)C1=CC=C(C)C=C1)C/2=N/C3=CC(=CC=C3C(=O)N2CC4=CC=CC=C4)Cl" only.
Solution: 10.9

* * *

System: NOMO1
experimentNotes: cell viability relative to DMSO control; higher = less cytotoxic
experimentalSetup: RPMI 5 mM glucose + 10% dialyzed FBS; 48 h; 0.569 µM
measurementLabel: cell viability (%)
Lab book: enter the figure in %, no units written.

compound	measurementLabel	observedValue
COC1=C(N2CCNC(C)C2)C(=CC3=C1N(\C=C(C(O)=O)/C3=O)C4CC4)F (stereo not drawn)	cell viability	94

Exercise: Answer with the recorded cell viability of "c1cncc(CN2CCC(n3ncc4c(N5CCOCC5)nc(-c5ccc6[nH]ccc6c5)nc43)CC2)c1" only.
Solution: 69.2

Exercise: Answer with the recorded cell viability of "CN(c1ncccc1CNc1nc(Nc2ccc3c(c2)CC(=O)N3)ncc1C(F)(F)F)[S+](C)(=O)[O-]" only.
Solution: 124

Exercise: Answer with the recorded cell viability of CC(NC1=CC=CC=C1)C\2=C\C(=C/N3C(=O)\C=C(/N=C23)N4CCOCC4)C (stereo not drawn) only.
Solution: 109

Exercise: Answer with the recorded cell viability of "Cc1c(CCOc2ccc(C(=O)O)cc2)c2cc(Cl)ccc2n1C(c1ccccc1)c1ccccc1" only.
Solution: 98.6
